All values here come from ChEMBL document CHEMBL3259797.

System: Kidney
PROTOCOL: Biodistribution in Sprague-Dawley rat kidney at 14.8 to 18.5 MBq, iv measured at 30 mins post-injection by gamma counting analysis
Format: ADME, organism-based
CONDITION LABEL: in vivo, 0.5 h
TEST READOUT: Drug uptake (% ID/g)
Just the number please, in % ID/g, no unit attached.

stdin: Query the reported Drug uptake for Kidney; item: Cn1cc(-c2ccncc2)c(-c2ccc(OCc3cc(O[11CH3])c4ccccc4n3)cc2)n1
stdout: 1.294

stdin: Consider next the molecule Cn1ncc(-c2ccncc2)c1-c1ccc(OCc2cc(O[11CH3])c3ccccc3n2)cc1 in the same way.
stdout: 0.645

stdin: Consider next the molecule Cn1cc(-c2ccncc2)c(-c2ccc(OCc3ccc4cc(O[11CH3])ccc4n3)cc2)n1 in the same way.
stdout: 0.883

stdin: Consider next the molecule Cn1cc(-c2ccncc2)c(-c2ccc(OCc3nc4ccccc4cc3O[11CH3])cc2)n1 in the same way.
stdout: 1.647
